Quick list: inhibition at 10 µM per entry.
measurement target: uterine OT receptors (Rattus norvegicus, UniProt P70536)
Construct: from tissue; host or cells: uterus of DES-treated rats, crude membrane preparation
Sequence (P70536 whole entry): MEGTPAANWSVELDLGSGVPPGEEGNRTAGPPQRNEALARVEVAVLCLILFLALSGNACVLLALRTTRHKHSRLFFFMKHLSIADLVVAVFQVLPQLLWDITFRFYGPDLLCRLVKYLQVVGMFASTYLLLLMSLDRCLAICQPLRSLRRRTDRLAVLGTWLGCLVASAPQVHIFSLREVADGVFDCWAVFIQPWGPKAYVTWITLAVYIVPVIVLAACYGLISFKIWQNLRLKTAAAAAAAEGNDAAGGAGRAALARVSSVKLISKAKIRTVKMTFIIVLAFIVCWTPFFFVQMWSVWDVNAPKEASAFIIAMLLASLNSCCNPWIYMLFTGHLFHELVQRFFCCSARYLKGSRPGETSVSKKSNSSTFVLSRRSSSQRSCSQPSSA
assay name: [³H]OT radioligand binding assay, crude uterine membrane preparation
Set-up: species or system rats
study conditions: @ 10 µM test compound; 1 nM [³H]OT, rat uterus; read-out: Inhibition Oxytocin % inhibition
Dear colleague, please return just the value in %, with no unit written.

CC12CC[C@](C(=O)N3CCC4(C=Cc5ccccc54)CC3)(OC1=O)C2(C)C ... 53
O=S(=O)(c1ccc(F)cc1)N1CCC2(C=Cc3ccccc32)CC1 ... 65

For CC(C)C[C@H](NC(=O)OC(C)(C)C)[C@H](O)CC(=O)N1CCC2(C=Cc3ccccc32)CC1 , what is its reported inhibition at 10 µM?
51
